For each entry below, report its selectivity ratio value.
# experimental protocol: Ratio of LD50 for dark toxicity in mouse Colon 26 cells to EC50 for photo-toxicity in mouse Colon 26 cells at 1 Jcm'-2 of continuous illumination with 630 +/- 2 nm laser light
# Assay type: cell-based
# setup conditions: read-out: Ratio LD50/EC50
Numbers only.

# molecule, selectivity ratio
rows = [
    ("O=C(c1ccc(C2=c3cc4c5c(c3[Se]c3c2cc2c6c3CCCN6CCC2)CCC[N+]=5CCC4)s1)N1CCCCC1.[Cl-]", 58),
]

Now look at this entry.
Recorded result, `S=C(c1ccc(C2=c3cc4c5c(c3[Se]c3c2cc2c6c3CCCN6CCC2)CCC[N+]=5CCC4)s1)N1CCCCC1.[Cl-]` , selectivity ratio: 53

* * *

# experimental protocol: n-Octanol-water partition coefficient, log P of the compound at pH 7.4 by shake flask method
# Assay type: physicochemical
quantity kind: logD
Answers are plain numbers.

# molecule, quantity kind, result value
records = [
    ("S=C(c1ccc(C2=c3cc4c5c(c3[Se]c3c2cc2c6c3CCCN6CCC2)CCC[N+]=5CCC4)s1)N1CCCCC1.[Cl-]", "logD", 4.1),
]

Now look at this entry.
Recorded result, `O=C(c1ccc(C2=c3cc4c5c(c3[Se]c3c2cc2c6c3CCCN6CCC2)CCC[N+]=5CCC4)s1)N1CCCCC1.[Cl-]` , logD: 3.71

* * *

# experimental protocol: Dark toxicity in mouse Colon 26 cells expressing p-glycoprotein assessed as cell viability incubated for 1 hr followed by incubated for 48 hrs in fresh medium by sulforhodamine B assay
# Format: cell-based
# setup conditions: read-out: LD50
quantity kind: CC50 at 1 h (nM)
Give bare numbers, in nM.

Below: 3 compounds and their reported CC50 at 1 h.
# molecule, reading unit, CC50 at 1 h
measured = [
    ("CN(C)c1ccc(-c2cc(-c3ccccc3)[s+]c(-c3ccc(N)cc3)c2)cc1", "nM", 70),
    ("CN(C)c1ccc(-c2cc(-c3ccccc3)[se+]c(-c3ccc(N)cc3)c2)cc1", "nM", 2600),
    ("O=C(c1ccc(C2=c3cc4c5c(c3[Se]c3c2cc2c6c3CCCN6CCC2)CCC[N+]=5CCC4)s1)N1CCCCC1.[Cl-]", "nM", 2240),
]

Now look at this entry.
Recorded result, `S=C(c1ccc(C2=c3cc4c5c(c3[Se]c3c2cc2c6c3CCCN6CCC2)CCC[N+]=5CCC4)s1)N1CCCCC1.[Cl-]` , CC50 at 1 h: 1530
